System: CAL-51
Experiment: normalised response (% of control), CellTiter-Glo; higher = more viable cells (100 = DMSO, 0 = benzethonium chloride kill control)
Conditions: incubation time: 72 h
// n strictly below 60% in normalised response; y otherwise

See these solved cases before continuing.
Q: Test whether the compound Cn1c(=O)n(-c2ccc(C(C)(C)C#N)cc2)c2c3cc(-c4cnc5ccccc5c4)ccc3ncc21 [Dactolisib] (1000 nM) records normalised response of 60% or higher.
A: n

Q: Test whether the compound CO[C@H]1C[C@@H]2CC[C@@H](C)[C@@](O)(O2)C(=O)C(=O)N2CCCC[C@H]2C(=O)O[C@H]([C@H](C)C[C@@H]2CC[C@@H](OCCO)[C@H](OC)C2)CC(=O)[C@H](C)/C=C(\C)[C@@H](O)[C@@H](OC)C(=O)[C@H](C)C[C@H](C)/C=C/C=C/C=C/1C [Everolimus] (100 nM) records normalised response of 60% or higher.
A: y

Q: Test whether the compound CNNCc1ccc(C(=O)NC(C)C)cc1 [Procarbazine] (10000 nM) records normalised response of 60% or higher.
A: y

Q: Test whether the compound C/C(=C\c1csc(C)n1)[C@@H]1C[C@@H]2O[C@]2(C)CCC[C@H](C)[C@H](O)[C@@H](C)C(=O)C(C)(C)[C@@H](O)CC(=O)O1 [Patupilone] (1000 nM) records normalised response of 60% or higher.
A: n

Q: Test whether the compound c1ccc([C@H]2CN3CCSC3=N2)cc1 [Levamisole] (10000 nM) records normalised response of 60% or higher.
A: y

Turning now to a further compound:
Q: Test whether the compound CCCCCCCCc1ccc(CCC(N)(CO)CO)cc1 [Fingolimod] (10000 nM) records normalised response of 60% or higher.
A: n

###

Tested on: MDA-MB-468
Experiment: normalised response (% of control), CellTox Green; higher = less cell death (100 = DMSO, 0 = benzethonium chloride kill control)
Conditions: incubation time: 72 h
METRIC: normalised response (%)
Kindly answer with a numeric value in %, unit omitted.

Q: Fill in the blank: the reported normalised response of C/C(=C\c1csc(C)n1)[C@@H]1C[C@@H]2O[C@]2(C)CCC[C@H](C)[C@H](O)[C@@H](C)C(=O)C(C)(C)[C@@H](O)CC(=O)O1 [Patupilone] (1000 nM) is ____.
A: 97.4

New cases:
Q: Fill in the blank: the reported normalised response of c1ccc([C@H]2CN3CCSC3=N2)cc1 [Levamisole] (1000 nM) is ____.
A: 68.7

Q: Fill in the blank: the reported normalised response of CC(C)c1c(C(=O)Nc2ccccc2)c(-c2ccccc2)c(-c2ccc(F)cc2)n1CC[C@@H](O)C[C@@H](O)CC(=O)O [Atorvastatin] (100 nM) is ____.
A: 120

Q: Fill in the blank: the reported normalised response of C[C@]12CC[C@H](O)CC1=CC[C@@H]1[C@@H]2CC[C@]2(C)C(c3cccnc3)=CC[C@@H]12 [Abiraterone] (500 nM) is ____.
A: 92

Q: Fill in the blank: the reported normalised response of Nc1nc(OCc2cc(Br)cs2)c2[nH]cnc2n1 [Lomeguatrib] (10000 nM) is ____.
A: 161

Q: Fill in the blank: the reported normalised response of CC(C)c1c(C(=O)Nc2ccccc2)c(-c2ccccc2)c(-c2ccc(F)cc2)n1CC[C@@H](O)C[C@@H](O)CC(=O)O [Atorvastatin] (1000 nM) is ____.
A: 87.3
